- system: UniProtKB P08183
- Sequence (P08183 whole entry, looked up): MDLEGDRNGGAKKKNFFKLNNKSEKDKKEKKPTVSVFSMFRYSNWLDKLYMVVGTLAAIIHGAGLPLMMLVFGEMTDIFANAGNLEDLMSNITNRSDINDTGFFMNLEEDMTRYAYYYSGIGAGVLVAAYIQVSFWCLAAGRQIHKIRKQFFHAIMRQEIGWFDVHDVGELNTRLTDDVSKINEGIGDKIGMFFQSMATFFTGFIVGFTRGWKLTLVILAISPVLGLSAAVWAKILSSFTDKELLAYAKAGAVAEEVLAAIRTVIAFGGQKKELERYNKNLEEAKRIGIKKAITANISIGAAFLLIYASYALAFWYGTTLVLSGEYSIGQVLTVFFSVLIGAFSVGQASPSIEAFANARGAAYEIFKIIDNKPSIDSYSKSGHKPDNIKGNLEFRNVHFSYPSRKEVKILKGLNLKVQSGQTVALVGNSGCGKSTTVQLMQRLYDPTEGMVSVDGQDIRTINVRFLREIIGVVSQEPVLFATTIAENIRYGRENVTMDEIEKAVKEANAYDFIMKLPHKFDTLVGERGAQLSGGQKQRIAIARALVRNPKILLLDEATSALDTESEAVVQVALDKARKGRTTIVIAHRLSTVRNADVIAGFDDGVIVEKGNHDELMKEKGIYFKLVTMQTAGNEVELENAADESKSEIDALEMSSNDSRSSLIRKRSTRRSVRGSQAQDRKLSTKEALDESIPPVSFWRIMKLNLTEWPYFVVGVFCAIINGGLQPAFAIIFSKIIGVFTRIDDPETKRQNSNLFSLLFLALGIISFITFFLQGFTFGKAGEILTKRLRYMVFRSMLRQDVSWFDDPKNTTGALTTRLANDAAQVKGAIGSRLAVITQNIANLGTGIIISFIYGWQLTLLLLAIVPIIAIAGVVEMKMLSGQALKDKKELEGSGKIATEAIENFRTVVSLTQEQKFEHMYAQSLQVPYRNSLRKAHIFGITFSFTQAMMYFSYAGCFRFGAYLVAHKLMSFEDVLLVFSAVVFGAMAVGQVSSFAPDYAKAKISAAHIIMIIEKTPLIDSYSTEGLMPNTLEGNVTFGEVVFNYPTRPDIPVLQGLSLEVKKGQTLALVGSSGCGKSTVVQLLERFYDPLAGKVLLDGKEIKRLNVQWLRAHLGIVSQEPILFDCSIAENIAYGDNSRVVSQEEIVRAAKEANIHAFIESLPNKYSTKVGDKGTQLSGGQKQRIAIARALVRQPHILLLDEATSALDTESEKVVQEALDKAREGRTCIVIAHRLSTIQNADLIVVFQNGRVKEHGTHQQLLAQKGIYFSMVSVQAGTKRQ
- procedure-summary: ABCB1 efflux inhibition concentration-response, dose response, Jurkat-DNR cells, JC-1, flow cytometry, follow-up (AID 489002)
- particulars: JC-1 efflux
Calls of active or inactive are those of the source.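 How the source made its calls: active means combined score above 52 from an acceptable curve fit, favoring EC50 below 10 µM and curve height over 20%; inactive means the rest.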

compound | EC50
COc1cccc(-c2cc(N3CCN(C(=O)c4ccoc4)CC3)n3nc(-c4cccc(OC)c4)cc3n2)c1 | 3.54 µM
O=C(c1coc2ccccc12)N1CCN(c2cc(-c3ccco3)nc3cc(-c4ccccc4)nn23)CC1 | inactive
Cc1ccc(-c2cc3nc(-c4ccco4)cc(N4CCN(C(=O)c5ccoc5)CC4)n3n2)cc1 | inactive
COc1cccc(-c2cc3nc(-c4ccccc4)cc(N4CCN(C(=O)c5ccoc5)CC4)n3n2)c1 | 7.07 µM
COc1cccc(-c2cc3nc(C)c(C(C)C)c(N4CCN(C(=O)c5ccoc5)CC4)n3n2)c1 | 10.2 µM
c1ccc(CN2CCN(c3cc(-c4ccco4)nc4cc(-c5ccccc5)nn34)CC2)cc1 | 3.84 µM
COc1ccc(-c2cc(N3CCN(C(=O)c4ccoc4)CC3)n3nc(-c4ccccc4)cc3n2)cc1 | inactive
COc1ccc(-c2cc3nc(C)c(C)c(N4CCN(C(=O)c5ccco5)CC4)n3n2)cc1 | 4.78 µM
O=C(c1ccoc1)N1CCN(c2cc(-c3ccco3)nc3cc(-c4ccc(Cl)cc4)nn23)CC1 | inactive
O=C(C1CCCO1)N1CCN(c2c3c(nc4cc(-c5cccc(F)c5)nn24)CCCC3)CC1 (centres undefined) | inactive
O=C(c1ccoc1)N1CCN(c2cc(-c3ccco3)nc3cc(-c4ccccc4)nn23)CC1 | 4.6 µM
CC1CN(C(=O)OC(C)(C)C)CCN1c1cc(-c2ccco2)nc2cc(-c3ccccc3)nn12 (centres undefined) | inactive
CC(=O)N1CCN(c2cc(-c3ccco3)nc3cc(-c4ccccc4)nn23)CC1 | 5.44 µM
O=C1CN(c2cc(-c3ccco3)nc3cc(-c4ccccc4)nn23)CCN1c1ccccc1 | 6.61 µM
c1ccc(-c2cc3nc(-c4ccco4)cc(N4CCNCC4)n3n2)cc1 | inactive
O=C(c1ccoc1)N1CCN(c2cc(-c3ccccc3)nc3cc(-c4ccncc4)nn23)CC1 | 9.92 µM
CC(C)(C)OC(=O)N1CCN(c2cc(-c3ccco3)nc3cc(-c4ccccc4)nn23)CC1 | inactive
Cc1nc2cc(-c3ccc(Br)cc3)nn2c(N2CCN(C(=O)c3ccoc3)CC2)c1C | inactive
COc1ccccc1-c1cc2nc(-c3ccco3)cc(N3CCN(C(=O)c4ccoc4)CC3)n2n1 | 10.3 µM
